Quick reference: percentage of EdU-negative of the listed items.
Tested on: MCF7;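 also: secreted proteins added to cultured cells, EdU pulse at the end, nuclei found by Hoechst imaging, EdU status from nuclear versus surrounding ring intensity ratio, PBS as neutral control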
Test: percentage of EdU-negative (G0-arrested) nuclei per well, 72 h; higher = more G0 arrest
Details: protein concentration 0.0257143 µM; reference: sequence is the full UniProt precursor, the tested protein was the secreted form or ectodomain
Write the number in % without appending the unit.

Need percentage of EdU-negative of MPGPWLLLALALTLNLTGVPGGRAQPEAAQQEAVTAAEHPGLDDFLRQVERLLFLRENIQRLQGDQGEHSASQIFQSDWLSKRQHPGKREEEEEEGVEEEEEEEGGAVGPHKRQHPGRREDEASWSVDVTQHKRQHPGRRSPWLAYAVPKRQHPGRRLADPKAQRSWEEEEEEEEREEDLMPEKRQHPGKRALGGPCGPQGAYGQAGLLLGLLDDLSRSQGAEEKRQHPGRRAAWVREPLEE , thanks.
23.3

Need percentage of EdU-negative of MKVLLCDLLLLSLFSSVFSSCQRDCLTCQEKLHPALDSFDLEVCILECEEKVFPSPLWTPCTKVMARSSWQLSPAAPEHVAAALYQPRASEMQHLRRMPRVRSLFQEQEEPEPGMEEAGEMEQKQLQKRFGGFTGARKSARKLANQKRFSEFMRQYLVLSMQSSQRRRTLHQNGNV , thanks.
24.9

Need percentage of EdU-negative of MGRDLRPGSRVLLLLLLLLLVYLTQPGNGNEGSVTGSCYCGKRISSDSPPSVQFMNRLRKHLRAYHRCLYYTRFQLLSWSVCGGNKDPWVQELMSCLDLKECGHAYSGIVAHQKHLLPTSPPISQASEGASSDIHTPAQMLLSTLQSTQRPTLPVGSLSSDKELTRPNETTIHTAGHSLAAGPEAGENQKQPEKNAGPTARTSATVPVLCLLAIIFILTAALSYVLCKRRRGQSPQSSPDLPVHYIPVAPDSNT [Q9H2A7] , thanks.
25.9

Need percentage of EdU-negative of MRTQSLLLLGALLAVGSQLPAVFGRKKGEKSGGCPPDDGPCLLSVPDQCVEDSQCPLTRKCCYRACFRQCVPRVSVKLGSCPEDQLRCLSPMNHLCHKDSDCSGKKRCCHSACGRDCRDPARGTAPGCPGQANSDLGSVALHLSWGPTERVHDGRPGALPAGQHYLYQRWFQPSDNHWPADTSLQPIHPWFLLLGVKVHSLSSEEGLCITPVLCTTAIRASHPS [Q8TCV5] , thanks.
23.5

Need percentage of EdU-negative of MQLQASLSFLLILTLCLELRSELARDTIKDLLPNVCAFPMEKGPCQTYMTRWFFNFETGECELFAYGGCGGNSNNFLRKEKCEKFCKFT , thanks.
25.8

Need percentage of EdU-negative of MAAARLCLSLLLLSTCVALLLQPLLGAQGAPLEPVYPGDNATPEQMAQYAADLRRYINMLTRPRYGKRHKEDTLAFSEWGSPHAAVPRELSPLDL , thanks.
20.5
